Target: T1, Human CD19-his protein (human, UniProt P15391 20-291)
T1 construct: bought protein; also called human CD19 protein; recombinant human CD19-His; not shown: His tag
T1 sequence (looked up): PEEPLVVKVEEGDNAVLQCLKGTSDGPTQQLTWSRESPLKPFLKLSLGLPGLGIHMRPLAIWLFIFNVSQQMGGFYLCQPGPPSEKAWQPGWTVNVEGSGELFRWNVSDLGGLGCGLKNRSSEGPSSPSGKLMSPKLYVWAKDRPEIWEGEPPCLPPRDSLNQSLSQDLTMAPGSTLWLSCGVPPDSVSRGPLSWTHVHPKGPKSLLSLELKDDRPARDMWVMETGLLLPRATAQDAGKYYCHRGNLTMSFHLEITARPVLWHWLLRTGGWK
Experiment: ELISA, antibody at 100 nM
Reported OD450 values are given for each entry in this list.
I only need the number, thanks.

| binder | OD450 |
| --- | --- |
| F3.133.14 (antibody, human IgG1, V domains shown, human-murine chimeric antibody, human IgG1) VH: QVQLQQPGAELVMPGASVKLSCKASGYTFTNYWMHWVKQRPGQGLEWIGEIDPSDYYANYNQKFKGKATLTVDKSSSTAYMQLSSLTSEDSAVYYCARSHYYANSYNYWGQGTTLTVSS VL: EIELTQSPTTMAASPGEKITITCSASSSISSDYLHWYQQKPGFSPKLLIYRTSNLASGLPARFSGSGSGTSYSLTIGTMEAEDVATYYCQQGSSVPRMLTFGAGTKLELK | 1.62 |

Entry F4.22.6 (antibody, human IgG1, V domains shown, human-murine chimeric antibody, human IgG1) VH: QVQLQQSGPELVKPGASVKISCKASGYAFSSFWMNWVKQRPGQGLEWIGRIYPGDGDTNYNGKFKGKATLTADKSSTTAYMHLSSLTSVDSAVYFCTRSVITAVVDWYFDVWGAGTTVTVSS VL: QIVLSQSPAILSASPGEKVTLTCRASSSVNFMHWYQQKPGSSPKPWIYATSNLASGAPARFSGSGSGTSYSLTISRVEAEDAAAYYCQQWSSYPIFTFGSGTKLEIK : reported OD450 = ?
0.88

Any idea what its OD450 is? The binder is F5.3.6 (antibody, human IgG1, V domains shown, human-murine chimeric antibody, human IgG1) VH: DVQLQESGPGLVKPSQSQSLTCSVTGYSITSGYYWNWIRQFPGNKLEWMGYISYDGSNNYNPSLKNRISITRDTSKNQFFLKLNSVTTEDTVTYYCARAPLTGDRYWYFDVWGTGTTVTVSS VL: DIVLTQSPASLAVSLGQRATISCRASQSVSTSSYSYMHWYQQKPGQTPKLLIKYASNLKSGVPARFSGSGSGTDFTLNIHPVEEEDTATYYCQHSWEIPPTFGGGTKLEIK
1.49

# OD450 lookup, item F4.35.5 (antibody, human IgG1, V domains shown, human-murine chimeric antibody, human IgG1) VH: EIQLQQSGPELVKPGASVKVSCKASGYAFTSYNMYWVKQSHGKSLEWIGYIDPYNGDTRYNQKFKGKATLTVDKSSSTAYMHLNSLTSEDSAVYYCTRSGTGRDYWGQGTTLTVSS VL: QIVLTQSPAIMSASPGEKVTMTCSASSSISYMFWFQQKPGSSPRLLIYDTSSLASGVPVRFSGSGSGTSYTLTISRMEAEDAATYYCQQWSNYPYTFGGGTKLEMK
0.87

I am curious: what OD450 value has been reported for F3.114.12 (antibody, human IgG1, V domains shown, human-murine chimeric antibody, human IgG1) VH: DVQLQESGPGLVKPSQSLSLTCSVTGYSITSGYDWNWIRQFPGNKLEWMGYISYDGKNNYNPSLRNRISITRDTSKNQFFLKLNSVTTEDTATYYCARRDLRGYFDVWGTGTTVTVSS VL: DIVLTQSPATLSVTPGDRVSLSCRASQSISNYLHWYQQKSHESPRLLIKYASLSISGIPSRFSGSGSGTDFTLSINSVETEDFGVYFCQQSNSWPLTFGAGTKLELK ?
0.61

# credit: patent US20250042994A1
